Origin of measurements: ChEMBL document CHEMBL1777764

A collection of compounds and their measured MIC
# System: Staphylococcus epidermidis
# experimental details: Antibacterial activity against Staphylococcus epidermidis ATCC 12228 after 18 hrs by broth microdilution method
# Format: functional
# measurement parameters: ATCC 12228, 18 h
Form entry: value (µg/mL) — number only.

1. CC(c1c[nH]c2ccccc12)N(O)Cc1ccccc1 (stereo not drawn)    64
2. CC(C)(C)OC(=O)NCC(NO)c1c[nH]c2ccc(Br)cc12 (stereo not drawn)    64
3. CC(C)CC(NO)c1c[nH]c2ccc(Cl)cc12 (stereo not drawn)    32

# get_value(readout='MIC', item= CC(C)(C)OC(=O)NCC(c1c[nH]c2cc(Br)ccc12)N(O)Cc1ccccc1 (stereo not drawn) )
16

Cl.Cl.NCC(NO)c1c[nH]c2ccc(F)cc12 (stereo not drawn) ?
8

Moving on to the next compound: CC(NO)c1c[nH]c2ccc(Br)cc12 (stereo not drawn)
64

Repeat with Cl.Cl.NCC(NO)c1c[nH]c2cc(Br)ccc12 (stereo not drawn)
16

Also need Cl.Cl.NCC(NO)c1c[nH]c2ccccc12 (stereo not drawn) , thanks.
32

Proceed to CC(C)CC(NO)c1c[nH]c2ccc(Br)cc12 (stereo not drawn)
16

And for CC(C)CC(NO)c1c[nH]c2ccc(I)cc12 (stereo not drawn) ?
16

###

# Test system: Staphylococcus aureus
# experimental details: Antibacterial activity against Staphylococcus aureus ATCC 6538 after 18 hrs by broth microdilution method
# Type: functional
# measurement parameters: ATCC 6538, 18 h
# MIC listing for each entry below

Recorded MIC, per entry:
1) CC(C)(C)OC(=O)NCC(c1c[nH]c2cccc(Br)c12)N(O)Cc1ccccc1 (stereo not drawn)    > 128 µg/mL
2) CC(C)(C)OC(=O)NCC(c1c[nH]c2ccc(F)cc12)N(O)Cc1ccccc1 (stereo not drawn)    > 128 µg/mL

Next compound, MIC to be filled in.
Recorded MIC of CC(c1c[nH]c2ccc(I)cc12)N(O)Cc1ccccc1 (stereo not drawn) , please.
> 128 µg/mL

###

# Tested on: Staphylococcus aureus
# experimental details: Antibacterial activity against Staphylococcus aureus ATCC 6538 after 18 hrs by broth microdilution method
# Assay type: functional
# measurement parameters: ATCC 6538, 18 h
MIC values by entry

1) CC(C)CC(c1c[nH]c2ccc(Br)cc12)N(O)Cc1ccccc1 (stereo not drawn)    > 128 µg/mL
2) CC(C)CC(c1c[nH]c2ccc(Cl)cc12)N(O)Cc1ccccc1 (stereo not drawn)    > 128 µg/mL

Field: next compound
State the recorded MIC for this entry: CC(C)CC(c1c[nH]c2ccc(I)cc12)N(O)Cc1ccccc1 (stereo not drawn)
> 128 µg/mL

###

Listed here: items and their measured MIC.
# Tested on: Staphylococcus epidermidis
# experimental details: Antibacterial activity against Staphylococcus epidermidis CIP 103627 after 18 hrs by broth microdilution method
# Assay type: functional
# measurement parameters: CIP 103627, 18 h

1) CC(c1c[nH]c2ccc(Cl)cc12)N(O)Cc1ccccc1 (stereo not drawn)    > 128 µg/mL
2) CC(C)(C)OC(=O)NCC(NO)c1c[nH]c2cc(Cl)ccc12 (stereo not drawn)    > 128 µg/mL

Pending compound:
I'd like to know its MIC. The compound in question is CC(C)CC(c1c[nH]c2ccc(Cl)cc12)N(O)Cc1ccccc1 (stereo not drawn)
> 128 µg/mL
